- Assay Overview: growth modulation of vineyard yeast isolate – strain RM11-1a, OD600, basal, 24 h, primary screen (AID 1177);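 note: cultures grown under basal conditions with no added stressor; test concentration not given here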
- Condition Info: S. cerevisiae RM11-1a growth, OD600, 24 h; higher = more signal, called active from +8 up or from −8 down
Value Kind: z-score
Give your answer as a number; write no unit.

Fill in: z-score of `COC(=O)[C@@]1(Cc2ccccc2)[C@H]2c3cc(C(=O)N(C)C)n(Cc4cc(F)c(F)c(F)c4)c3C[C@H]2CN1C(=O)c1ccccc1` is ___ 0.968

And then O=C1C2C=CC(C(O)c3ccccn3)N(Nc3ccccc3F)C2C(=O)N1c1ccccc1 (stereo not drawn) , what is it? -0.0396

Please answer likewise for `O=[N+]([O-])c1ccc(C[n+]2ccc(CCCO)cc2)o1` 0.379

Then what about the molecule `COC(=O)[C@@]1(Cc2ccc(OC)cc2)[C@H]2c3cc(C(=O)N4CCCC4)n(C[C@H](O)CO)c3C[C@H]2CN1C(=O)c1ccccc1` ? 1.04

And the next one, `CO[C@H]1O[C@H](CO)[C@@H](OC(=O)Nc2ccc(C(F)(F)F)cc2)[C@H](OC(=O)Nc2ccccc2)[C@@H]1OC(=O)Nc1ccccc1` ? 0.0212

Same for `CCCCCCC#C[Si](O[C@H](c1ccccc1)c1cn([C@H](C)c2ccccc2)nn1)(C(C)C)C(C)C` 0.53

Let us now turn to CN1C(=O)C2C(C1=O)C1C=C(c3ccc(CO)cc3)C2C(C2CC2)N1Cc1sc2ccccc2c1Cl (stereo not drawn) 1.2

Same again, this time with `CN(C)CCCCNC(=O)[C@@H]1C[C@@H]2C(=O)N[C@@H](CCCCN)C(=O)N2[C@@H]1c1cccc(OCCO)c1` -0.147

Also `Cc1ccc(N2C(=O)c3ccccc3[C@](C)(C(=O)NCCN3CCOCC3)[C@@H]2c2ccc(CO)cc2)nc1` , if possible. 0.548

And then `O=C1c2ccccc2[C@](Cc2ccccc2I)(C(=O)O)[C@H](c2ccc(CO)cc2)N1Cc1ccccc1C(F)(F)F` , what is it? 0.893

Another molecule: Cc1cc(C)c(C(O)C2C=CC3C(=O)NC(=O)C3N2Nc2ccccn2)c(C)c1 (stereo not drawn) 0.276

Try this molecule too: `COc1c(C)cc(-c2cc3c(c(-c4ccccc4)n2)[Si](C(C)C)(C(C)C)O[C@H]3c2ccccc2)cc1C` -1.33

Let us now turn to `C=C(C(=O)CC[C@@H](OC(C)=O)c1ccc(OCCO)cc1)C(C)C` 0.156

Another: `C=CCOC(=O)[C@H]1[C@@H]2C(=O)O[C@@H](c3ccccc3)[C@@H](c3ccccc3)N2[C@@H](c2ccc(OCCOC(=O)[C@H]3C[C@H]4C(=O)N[C@@H](CCCC[N+](C)(C)C)C(=O)N4[C@H]3c3ccc(O)cc3)cc2)[C@]12C(=O)Nc1ccccc12` 0.0539

And then `O=C1O[C@@H](c2ccccc2)[C@@H](c2ccccc2)N2[C@@H](c3ccc(O)cc3)[C@]3(C(=O)Nc4ccc(C#CCCO)cc43)[C@@H](C(=O)O)[C@H]12` , what is it? -0.261

Query `NC(=O)NCC#Cc1ccc2c(c1)[C@]1(C(=O)N2)[C@H](c2ccccc2OCCO)N2[C@H](c3ccccc3)[C@H](c3ccccc3)OC(=O)[C@H]2[C@@H]1C(=O)N1CCCCCCC1` next 0.899

Next molecule up: COCC1C2CC[C@H]3C(OCc4ccc(F)cc4C(F)(F)F)OC[C@]4(C)[C@H]3C2=C(CN4C(=O)OC(C)(C)C)[C@H](C)C1COC (stereo partly drawn) -3.23

Entry `CCCNC(=O)[C@@]1(c2ccc([N+](=O)[O-])cc2)CC(=O)N(CC23CC4CC(CC(C4)C2)C3)[C@@H]1c1ccc(CO)cc1I` please 1.34

* * *

- Assay Overview: S. pombe growth modifiers, basal conditions – strain 972, OD600, 24 h, no modulator, primary screen (AID 1090);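 note: basal condition with compound alone and no growth modifier present; test concentration not given here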
- Condition Info: S. pombe 972 growth, higher = more signal, called active from +8 up or from −8 down
Provide the recorded z-score for the entries that follow.
Lab note: record the figure alone, no unit after it.

Item CCOC1=C2C(c3ccc(C)cc3)N(S(=O)(=O)c3ccc(C)cc3)CC2n2c(=O)n(-c3ccccc3)c(=O)n2C1 (stereo unspecified) has what recorded z-score? 0.401

Next: `C=C(COC)C(=O)CC[C@H](OC(=O)c1cccnc1)c1ccccc1OCCO` -1.57

Queued: CC(=O)n1cc(C(O)C2C=CC3C(=O)N(c4ccccc4)C(=O)C3N2Nc2ccc(C#N)cc2)c2ccccc21 (stereo unspecified) 1.09

// query: `O=C1O[C@@H](c2ccccc2)[C@@H](c2ccccc2)N2[C@@H](c3ccc(O)cc3)[C@]3(C(=O)Nc4ccccc43)[C@@H](C(=O)NC[C@H](O)c3ccccc3)[C@H]12` 0.572

Now consider CCN(CC)c1ccc(N2CC=CC34O[C@@H]5C=CCCOC(=O)C5[C@H]3C(=O)N(CCCO)[C@@H]4C2=O)cc1 (stereo partly specified) and answer again. -0.983

// next record `C=C[C@H](C)[C@H](O)c1ccc(OCCO)cc1` -0.404

Also [N-]=[N+]=NCc1ccccc1C[C@]1(C(=O)NCC(O)CO)COC(c2ccc(OCCCO)cc2)=N1 (stereo partly specified) , if possible. -3.05

Follow-up item: `C=CCN1C(=O)[C@@]2(O[C@@H](CCO)[C@H]([Si](C)(C)c3ccc(OC)cc3)[C@H]2C)c2cc(NC(C)=O)ccc21` -1.67

Also CC(C)C(O)C1C=CC2C(=O)N(C)C(=O)C2N1N1CCCCC1 (stereo unspecified) ? 0.891

Can you handle CCCCN1CC=CC23O[C@@H]4C=CCCOC(=O)C4[C@H]2C(=O)N(CCCO)[C@@H]3C1=O (stereo partly specified) next? -0.788

And what about the compound CCN(CC)c1ccc(N2CC=CC34O[C@@H]5C=CCOC(=O)[C@@H]5[C@H]3C(=O)N(CCCCCO)[C@@H]4C2=O)cc1 (stereo partly specified) ? -1.3

Same thing, different compound: `O=C1O[C@@H](c2ccccc2)[C@@H](c2ccccc2)N2[C@@H](c3ccc(O)cc3)[C@]3(C(=O)Nc4ccccc43)[C@@H](C(=O)N3CCCCCCC3)[C@H]12` 0.295

Another: `C=CCN1Cc2ccccc2C[C@@]2(COC(c3ccc(OCCCO)cc3)=N2)C1=O` -4.77

Consider next the compound `C=CCOC(=O)[C@@H]1[C@H]2C(=O)O[C@H](c3ccccc3)[C@H](c3ccccc3)N2[C@H](c2ccc(OCCOC(=O)[C@H]3C[C@H]4C(=O)N[C@@H](CC(C)C)C(=O)N4[C@H]3c3cccc(OCCO)c3)cc2)[C@@]12C(=O)Nc1ccc(I)cc12` in the same way. 0.492

Queued: `COC(=O)c1c2oc(c1C(=O)OC)C(=O)N[C@H](Cc1ccccc1)Cn1nncc1C1(CCCCC1)NC(=O)N[C@H](CO)CC2` 0.414

Also need CC(C)(C)OC(=O)CC[C@]1(C(=O)NCC(O)CO)N=C(c2ccc(OCCCO)cc2)O[C@H]1c1ccccc1CN=[N+]=[N-] (stereo partly specified) , thanks. -0.867

# iterate: C[C@H]1C2[C@H](Cc3ccccc3)NC(=O)[C@]23C(=O)N[C@H](Cc2ccccc2)C(=O)N[C@H](Cc2ccccc2)C(=O)NC/C=C/CCC/C=C/C3[C@@H]2O[C@]12C (stereo partly specified) -1.84

Further, for `Cc1ccc(S[C@]2(C(=O)NCC(F)(F)F)CC(=O)N(C3Cc4ccccc4C3)[C@@H]2c2ccc(CO)cc2I)cc1` ? -0.967

Thanks! And `CCOC(=O)C1=CC[C@@H](c2ccccc2)N(S(=O)(=O)c2ccc(C)cc2)[C@H]1c1ccc(C#N)cc1` ? 0.553

Repeat for the following compound: O=C1OCC=C[C@H]2OC34C=CCN(Cc5ccccc5)C(=O)[C@H]3N(CCCO)C(=O)[C@@H]4[C@@H]12 (stereo partly specified) -0.885

Input `O=c1cccc(-c2cccc3ccccc23)o1` -13.3

* * *

Provide the reported composite z-score of each item.
- Test system: Lefty1
- Assay Overview: Lefty1 protein binding to printed compounds – biochemical, small-molecule microarray, 635/667 nm fluorescence, primary screen (AID 1139)
- Condition Info: fluorescence 635/667, higher = more signal

Which value of composite z-score has been reported for `COC(=O)[C@@]1(Cc2ccc(F)cc2)[C@H]2c3cc(C(=O)N(C)C)n(Cc4ccccn4)c3C[C@H]2CN1C(=O)c1ccccc1` in the records? -0.12

Please do the same for `C=CCN1C(=O)[C@@]2(O[C@@H](CCO)[C@H]([Si](C)(C)c3ccc(OC)cc3)[C@H]2C)c2cc(N3C(=O)COc4ccccc43)ccc21` as well. 0.0865

Same again, this time with `C=CCNC(=O)[C@H]1[C@@H]2C(=O)O[C@@H](c3ccccc3)[C@@H](c3ccccc3)N2[C@@H](c2ccc(OCCO)cc2)[C@]12C(=O)N(C(=O)OCCOC)c1ccc(C#CC3(O)CCCCCC3)cc12` 1.47

Same thing, different compound: `CCCC[C@@H]1C[C@H]1[C@@H](NC(=O)c1ccccc1)c1ccc(-c2ccccc2)cc1` -0.26

# repeat for `COCCCNC(=O)[C@@]1(Cc2ccccc2I)c2ccccc2C(=O)N(Cc2ccccc2)[C@H]1c1ccc(CO)cc1` -1.94

What do you have for `C=C(/C(=C/C[C@@H](OC(=O)c1ccncc1)c1ccc(CO)o1)c1cc(C(=O)OC)ccc1OC)C(C)C` ? 1.24

Thanks! And `COc1ccc([Si](C)(C)[C@@H]2[C@@H](CCO)O[C@]3(C(=O)N(Cc4cccc(N5CCCCC5=O)c4)c4ccccc43)[C@H]2C)cc1` ? 0.883

Okay, and `CN(C)CCCCNC(=O)[C@@H]1C[C@@H]2C(=O)N[C@@H](CCCCN)C(=O)N2[C@@H]1c1cccc(OCCO)c1` ? -0.382

How about `NC(=O)[C@@]1(CCS(=O)(=O)c2ccccc2)N=C(c2ccc(OCCCO)cc2)O[C@H]1c1ccccc1` ? -0.0434

Request: `C=C(C(=O)CC[C@@H](OC(=O)c1cccnc1)c1ccc(OCCO)cc1)C(C)C` 1.21

Try this compound too: `C=CCN1Cc2ccccc2C[C@]2(N=C(c3ccc(OCCCO)cc3)O[C@@H]2c2ccccc2)C1=O` 0.706

For `O=C(NCc1ccccc1)[C@@H]1c2ccccc2C(=O)N(C2CCCCC2)[C@H]1c1ccc(CO)cc1` then? 0.917

Same lookup for `C=C(CCCC)/C(=C/C[C@H](OC(C)=O)c1ccc(CO)o1)c1cc(C(=O)OC)ccc1OC` , please. 1.42

Request: `C=CC[C@@]1(C(=O)OC)N=C(c2ccc(OCCCO)cc2)O[C@@H]1c1ccccc1CN=[N+]=[N-]` 0.543

Follow-up entry: `COc1ccc([Si](C)(C)[C@H]2[C@H](CC(=O)N(CCO)Cc3ccccc3)O[C@@]3(C(=O)N(Cc4cccc(N5C(=O)c6cccc7cccc5c67)c4)c4ccccc43)[C@@H]2C)cc1` 0.834

Record: `COCCn1c(C(=O)N(C)C)cc2c1C[C@H]1CN(C(=O)c3ccccc3)[C@@](Cc3ccc(F)cc3)(C(=O)OC)[C@@H]21` -0.0481

Would you mind doing `CC(=O)NCCCC[C@@H]1NC(=O)[C@@H]2C[C@H](C(=O)NCCCCCC[N+](C)(C)C)[C@H](c3cccc(OCCO)c3)N2C1=O` as well? 1.26

# iterate: `CC(C)C[C@@H]1NC(=O)[C@@H]2C[C@H](C(=O)NCCCCN(C)C)[C@H](c3ccc(O)cc3)N2C1=O` -0.477

Next compound: `COCCOC(=O)N1C(=O)[C@@]2(c3cc(C#CCC(C(=O)OC)C(=O)OC)ccc31)[C@H](c1ccccc1OCCO)N1[C@H](c3ccccc3)[C@H](c3ccccc3)OC(=O)[C@H]1[C@@H]2C(=O)Nc1nc2ccccc2s1` 1.55

How about this compound: `C=CCOC(=O)[C@H]1[C@@H]2C(=O)O[C@@H](c3ccccc3)[C@@H](c3ccccc3)N2[C@@H](c2ccc(OCCOC(=O)[C@H]3C[C@H]4C(=O)N[C@@H](CCCC[N+](C)(C)C)C(=O)N4[C@H]3c3ccc(O)cc3)cc2)[C@]12C(=O)Nc1ccccc12` 0.653
